Test: 14-day oral gavage toxicokinetic study in rats
Type: in vivo
Details: female, rat, plasma, po, 15 mg/kg, Mean Compound 1 Plasma Concentration, rats, oral 15 mg/kg, Day 1, 12 h, Female
Recorded Metric: concentration at 12 h (ng/mL)
Give bare numbers, in ng/mL.

Exercise: Give the measured concentration at 12 h of CN1CCN(c2ccc(Nc3ncc4cc5n(c4n3)C3(CCCCC3)CNC5=O)nc2)CC1 .
Solution: 916

====

Assay: 14-day oral gavage toxicokinetic study in rats
Type: in vivo
Conditions: male, rat, plasma, po, 5 mg/kg, oral 5 mg/kg, Study Day 14, Male; read-out: t½ (converted)
Recorded Metric: half-life (h)
One number for each entry, in h.

Exercise: I am curious: what half-life value has been reported for CN1CCN(c2ccc(Nc3ncc4cc5n(c4n3)C3(CCCCC3)CNC5=O)nc2)CC1 [Compound 1] ?
Solution: 3.77

====

Assay: Compound 1 PK dosed Days 1-5 with topotecan
Format: in vivo, human
Details: human, plasma, intravenous, 200 mg/m^2 with Topotecan […]^2 (Cohort 1), Day 1, Geo. Mean; read-out: t½ (converted)
Recorded Metric: half-life
Reply with the number, then its unit.

Exercise: Which half-life value belongs to CN1CCN(c2ccc(Nc3ncc4cc5n(c4n3)C3(CCCCC3)CNC5=O)nc2)CC1 ?
Solution: 355 min

====

Experiment: 14-day oral gavage toxicokinetic study in rats
Format: in vivo
Conditions: female, rat, plasma, po, 5 mg/kg, Individual Compound 1 Plasma Concentration, rats, daily oral 5 mg/kg, Day 14, Female, 12 h
Recorded Metric: concentration at 12 h (ng/mL)
One number for each entry, in ng/mL.

Exercise: Consider the molecule CN1CCN(c2ccc(Nc3ncc4cc5n(c4n3)C3(CCCCC3)CNC5=O)nc2)CC1 and give its measured concentration at 12 h.
Solution: 112

====

Experiment: 14-day oral gavage toxicokinetic study in rats
Type: in vivo
Settings: male, rat, plasma, po, 2 mg/kg, Mean Compound 1 Plasma Concentration, rats, oral 2 mg/kg, Day 14, 1 h, Male
Recorded Metric: concentration at 1 h (ng/mL)
Answers are plain numbers, in ng/mL.

Exercise: Name the recorded concentration at 1 h for CN1CCN(c2ccc(Nc3ncc4cc5n(c4n3)C3(CCCCC3)CNC5=O)nc2)CC1 [Compound 1] .
Solution: 57.1

====

Test: 14-day oral gavage toxicokinetic study in rats
Type: in vivo
Details: both sexes, rat, plasma, po, 15 mg/kg, Mean Compound 1 Plasma Concentration, rats, oral 15 mg/kg, Day 1, 1 h, Overall
Method: Plasma was obtained from blood samples collected from rats in a composite sampling scheme, with 3 samples collected per sex, per dose, at each target collection time, as illustrated in Table 21 to Table 25. […] The following parameters were determined: […] A value of 0 ng/mL was assigned to all values below the lower limit of quantitation (BLQ, <10.0 ng/mL). […] CL: Clearance (L/h/kg), calculated as the dose divided by AUC(0-t). […] Cmax/Dose: Normalized Cmax, calculated as Cmax divided by total dose. […]
Recorded Metric: concentration at 1 h (ng/mL)
Give bare numbers, in ng/mL.

Exercise: Fill in: concentration at 1 h of CN1CCN(c2ccc(Nc3ncc4cc5n(c4n3)C3(CCCCC3)CNC5=O)nc2)CC1 [Compound 1] is ___
Solution: 1170
